target: T1, PARD3-3 (human, UniProt Q8TEW0 590-677); assay: holdup assay; biotinylated PBM peptide saturating streptavidin resin (biotin resin as reference); tag-PDZ at 4 uM in crude E. coli lysate, 15 min, filtration, free tag-PDZ by capillary electrophoresis; singlicate; BI cut-off 0.20; BI converted into KD with the peptide concentration back-calculated from FP; settings: one partner purified
T1 construct: the text says PARD3-1; also called PARD3 PDZ dom 3; source: E. coli, in crude cell lysate; not shown: His, N-terminal, kept
T1 sequence (Q8TEW0 590-677): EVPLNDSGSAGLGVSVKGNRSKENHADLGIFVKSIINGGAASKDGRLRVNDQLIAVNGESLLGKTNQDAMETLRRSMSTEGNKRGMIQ
Where no end group is shown, it is not given here. The star is where a group is joined. Biotin = O=C1N[C@H]2[C@H](CS[C@H]2CCCCC(=O)*)N1; TTDS = NCCCOCCOCCOCCCNC(=O)CCC(=O)*
Reported Endpoint: Kd (µM)
The response must be a number in µM with no trailing unit.

{Biotin-TTDS}-DEDQHTQITRV (peptide, UniProt P60484 393-403, looked up, also called K402R mutant; source: synthetic peptide (Chemical Peptide Synthesis Service of the IGBMC, Fmoc)) [PTEN_KR] = 56

Incoming: Endpoint output: Kd of {Biotin-TTDS}-PFDEDQHTQITKV (peptide, UniProt P60484 391-403, looked up, also called 13-mer PTEN peptide; extended wild-type peptide; source: synthetic peptide, bought: JPT Innovative Peptide Solutions (70%-80% purity)) [PTEN_13] . Value?
Outgoing: 96
